assay: self-splicing fitness, log relative to wild type (ln ratio); higher = more splicing; Tetrahymena group I intron in knt gene, E. coli kanamycin selection, DiMSum; sequences stand for … in CUCUCU…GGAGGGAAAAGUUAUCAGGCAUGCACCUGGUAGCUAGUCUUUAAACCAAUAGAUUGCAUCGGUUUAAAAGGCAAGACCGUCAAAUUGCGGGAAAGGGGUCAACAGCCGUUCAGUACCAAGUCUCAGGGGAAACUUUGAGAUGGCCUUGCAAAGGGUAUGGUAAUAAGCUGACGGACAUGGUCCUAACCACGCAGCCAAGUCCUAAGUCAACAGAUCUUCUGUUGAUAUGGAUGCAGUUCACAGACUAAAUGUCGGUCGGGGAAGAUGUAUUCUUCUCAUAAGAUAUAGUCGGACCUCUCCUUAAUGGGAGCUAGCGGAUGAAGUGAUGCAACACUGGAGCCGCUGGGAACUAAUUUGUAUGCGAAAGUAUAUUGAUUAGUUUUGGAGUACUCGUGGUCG; conditions: 37 °C;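 also: selection with 25 µg/mL kanamycin versus none on LB agar overnight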
Would you mind labelling by self-splicing fitness (ln)? At or over -2 is Y, under is N.

BIOSEQUENCE	GROUP
UUCAAGCAAUAUUACGUGCA	Y
GGCUAGCAAUAUUACGGGCG	Y
AGUAAGCAAUAUUACGAACC	Y
AGAUAGCAAUAUUACGGUCU	N
CUGCAGCAAUAUUACGGUCU	N
UCCGAGCAAUAUUACGAUUU	N
UCCUAGCAAUAUUACGGUGU	Y
CAAGAGCAAUAUUACGGGAG	Y
ACUAAGCAAUAUUACGUUAA	N
CUAUAGCAAUAUUACGGUCU	N
UCUCAGCAAUAUUACGGGGU	N
AUACAGCAAUAUUACGCUUC	N
AGCGAGCAAUAUUACGAGUU	Y
UCCGAGCAAUAUUACGCUUU	N
UUGGAGCAAUAUUACGGCGU	N

----------
Parameter self-splicing fitness (ln): see the listing below.
assay: self-splicing fitness, log relative to wild type (ln ratio); higher = more splicing; Tetrahymena group I intron in knt gene, E. coli kanamycin selection, DiMSum; sequences stand for … in CUCUCU…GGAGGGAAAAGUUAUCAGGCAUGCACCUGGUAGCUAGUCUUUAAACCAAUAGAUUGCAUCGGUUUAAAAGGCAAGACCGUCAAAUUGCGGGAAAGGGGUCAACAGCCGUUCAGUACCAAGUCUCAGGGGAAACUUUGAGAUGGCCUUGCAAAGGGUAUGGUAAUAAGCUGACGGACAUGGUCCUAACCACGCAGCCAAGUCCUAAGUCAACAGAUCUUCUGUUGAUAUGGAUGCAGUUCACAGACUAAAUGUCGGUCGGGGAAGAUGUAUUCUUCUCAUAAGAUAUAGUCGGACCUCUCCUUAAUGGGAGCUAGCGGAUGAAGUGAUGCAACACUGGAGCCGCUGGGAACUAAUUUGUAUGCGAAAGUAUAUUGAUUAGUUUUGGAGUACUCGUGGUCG; details: 30 °C

BIOSEQUENCE	self-splicing fitness (ln)
GUUCAGCAAUAUUACGAUGG	-3.81
ACGUAGCAAUAUUACGGGGA	-1.93
UAUGAGCAAUAUUACGUCGU	-3.39
ACUAAGCAAUAUUACGCUAC	-3.94
CAUCAGCAAUAUUACGUGGA	-3.6
UUAGAGCAAUAUUACGACUC	-2.73
AGUAAGCAAUAUUACGUACA	-0.932
AUUAAGCAAUAUUACGAGUU	-2.42
GCGUAGCAAUAUUACGGAUC	-0.345
AAGUAGCAAUAUUACGGAAU	-3.66
ACAGAGCAAUAUUACGCGGG	-4.91
AAAUAGCAAUAUUACGACAG	-2.02
AACUAGCAAUAUUACGAGAC	-1.96
CCCAAGCAAUAUUACGGUUU	-3.72
UGAUAGCAAUAUUACGCCCA	0.955
GCCAAGCAAUAUUACGUAUU	-3.29
AAUGAGCAAUAUUACGGGGC	-2.82
GUCUAGCAAUAUUACGCGGA	-2.61
ACGCAGCAAUAUUACGUGUU	-4.19
UCCUAGCAAUAUUACGACGA	0.168
AGGGAGCAAUAUUACGUCAC	-2.07
GUGCAGCAAUAUUACGAAGU	-1.74
CGUAAGCAAUAUUACGCGUC	-3.79
GAGCAGCAAUAUUACGUUGA	-2.38
CCAAAGCAAUAUUACGCACA	-3.55
CCGAAGCAAUAUUACGAAAU	-4.57
GGUAAGCAAUAUUACGAGUG	-2
GGCGAGCAAUAUUACGAUCA	-1.18
UGAUAGCAAUAUUACGCGGU	-3.34
GCUAAGCAAUAUUACGACCG	-0.349
UGCGAGCAAUAUUACGUACG	-3.12
GGACAGCAAUAUUACGCCCU	-3.25
CUCAAGCAAUAUUACGUUGA	-3.13
GGCCAGCAAUAUUACGCUUA	-0.822
